# MEASURED_TARGET: T1, rat CRF receptor, type 1 (rCRFR1) (rat, UniProt P35353 24-415)
# T1 construct: whole, on cells; cAMP assays on the whole cells; also called HEK-rCRFR1 cells
# T1 sequence (looked up): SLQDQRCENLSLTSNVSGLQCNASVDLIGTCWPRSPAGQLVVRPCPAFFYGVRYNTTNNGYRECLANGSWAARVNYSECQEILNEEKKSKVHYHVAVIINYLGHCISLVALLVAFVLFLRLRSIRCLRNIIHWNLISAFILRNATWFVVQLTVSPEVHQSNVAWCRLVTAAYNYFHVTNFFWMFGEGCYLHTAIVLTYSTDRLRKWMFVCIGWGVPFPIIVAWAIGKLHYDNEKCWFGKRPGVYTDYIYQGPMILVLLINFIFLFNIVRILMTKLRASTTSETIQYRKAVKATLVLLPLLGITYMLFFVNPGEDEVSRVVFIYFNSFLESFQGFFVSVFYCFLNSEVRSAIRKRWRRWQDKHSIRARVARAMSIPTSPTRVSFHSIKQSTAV
# TEST_METHOD_NOTES: displacement of [125I-Tyr0]oCRF from HEK-rCRFR1 membranes
Non-standard residues stand in square brackets, D forms with d. No end group written: not given here. *: point of attachment. ATB = 4-(1-azi-2,2,2-trifluoroethyl)benzoyl, O=C(c1ccc(C2(C(F)(F)F)N=N2)cc1)*
Labelling: Kd reported below 800 nM becomes class 1; at or above becomes class 0.

BINDER	ASSIGNED_CATEGORY
YHLLRKMIEIEKQEKEKQQAANNRLLLDTI (ends and bridges not checked, also called compound 18) [[Tyr^11, His^12]Svg(11-40)]	class 1
YLLRKMIEIEKQEKEKQQAANNRLLLDTI (ends and bridges not checked, also called compound 20) [[Tyr^12]Svg(12-40)]	class 0
LELLRKMIEIEKQEKEKQQAANNRLLLDTI (not fully specified (C-terminus), also called compound 14) [Svg(11-40)]	class 0
{ATB}-HLLRKMIEIEKQEKEKQQAANNRLLLDTI (ends and bridges not checked, also called compound 17) [ATB-[His^12]Svg(12-40)]	class 1
YELLRKMIEIEKQEKEKQQAANNRLLLDTI (ends and bridges not checked, also called compound 19) [[Tyr^11]Svg(11-40)]	class 0
[dF]ELLRKMIEIEKQEKEKQQAANNRLLLDTI (not fully specified (C-terminus), also called compound 12) [[DPhe^11]Svg(11-40)]	class 1
[dL]ELLRKMIEIEKQEKEKQQAANNRLLLDTI (not fully specified (C-terminus), also called compound 13) [[DLeu^11]Svg(11-40)]	class 0

These measurements were taken from patent US6846803B1.
